Reported IC50 is given for each of the following compounds.
# ASSAYED SYSTEM: HCV NS3/4A protease genotype 1b (Hepatitis C virus genotype 1b, UniProt P26663)
# ASSAY OVERVIEW: HCV NS3/4A protease time-resolved fluorescence (TRF) assay, Ki against genotype 1b
# Type: biochemical
# CONDITION LABEL: IC50 [gt-1b] (nM), NS3/4A genotype 1b, enzyme 0.2 nM
MEASURE: IC50 (nM)

1) COc1ccc2nc(C3CC3)c3c(c2c1)CC[C@]1(C[C@H]2C(=O)N[C@]4(C(=O)NS(=O)(=O)C5(C)CC5)C[C@H]4/C=C\CCCCC[C@H](NC(=O)OC4(C)CC4)C(=O)N2C1)O3 ... 0.01
2) COc1ccc2nc(C(F)(F)F)c3c(c2c1)CC[C@]1(C[C@H]2C(=O)N[C@]4(C(=O)NS(=O)(=O)C5(C)CC5)C[C@H]4/C=C\CCCCC[C@H](NC(=O)OC4CCCC4)C(=O)N2C1)O3 ... 0.024
3) Cc1nc2ccc(F)cc2c2c1O[C@]1(CC2)C[C@H]2C(=O)N[C@]3(C(=O)NS(=O)(=O)C4(C)CC4)C[C@H]3/C=C\CCCCC[C@H](NC(=O)OC(C)(C)C)C(=O)N2C1 ... 0.005
4) Cc1nc2c(C(F)(F)F)cccc2c2c1O[C@]1(CC2)C[C@H]2C(=O)N[C@]3(C(=O)NS(=O)(=O)C4CC4)C[C@H]3/C=C\CCCCC[C@H](NC(=O)OC(C)(C)C)C(=O)N2C1 ... 0.993
5) CC(C)COC(=O)N[C@H]1CCCCC/C=C\[C@@H]2C[C@@]2(C(=O)NS(=O)(=O)C2(C)CC2)NC(=O)[C@@H]2C[C@]3(CCc4c(cnc5ccccc45)O3)CN2C1=O ... 0.806

###

Reported pEC50 is given for each of the following molecules.
# Tested on: HCV genotype 1b replicon
# ASSAY OVERVIEW: HCV replicon assay, genotype 1b replicon EC50
# Assay type: cell-based, Hepatitis C virus
# CONDITION LABEL: Hepatitis C virus, HCV replicon, genotype 1b; read-out: EC50 [gt-1b]
pEC50: −log10 of the molar value.
MEASURE: pEC50

1. COc1ccc2nc(C(F)(F)F)c3c(c2c1)OC[C@]1(C[C@H]2C(=O)N[C@]4(C(=O)NS(=O)(=O)C5(C)CC5)C[C@@H]4/C=C/CCCCC[C@H](NC(=O)OC(C)(C)C)C(=O)N2C1)O3 ... 8.05
2. COCC1(S(=O)(=O)NC(=O)[C@@]23C[C@H]2/C=C\CCCCC[C@H](NC(=O)O[C@@H](C)C(C)C)C(=O)N2C[C@@]4(CCc5c(c(C(F)F)nc6ccc(OC)cc56)O4)C[C@H]2C(=O)N3)CC1 ... 8.24
3. COc1cccc(N[C@H]2CCCCC/C=C\[C@@H]3C[C@@]3(C(=O)NS(=O)(=O)C3(C)CC3)NC(=O)[C@@H]3C[C@]4(CCc5c(c(C)nc6ccccc56)O4)CN3C2=O)n1 ... 7.79

###

Reported IC50 is given for each of the following molecules.
# ASSAYED SYSTEM: HCV NS3/4A protease genotype 1b (Hepatitis C virus genotype 1b)
# ASSAY OVERVIEW: HCV NS3/4A protease time-resolved fluorescence (TRF) assay, Ki against genotype 1b
# Type: biochemical
# CONDITION LABEL: IC50 [gt-1b] (nM), NS3/4A genotype 1b, enzyme 0.2 nM
MEASURE: IC50 (nM)

1. Cc1nc2ccccc2c2c1O[C@]1(CC2)C[C@H]2C(=O)N[C@]3(C(=O)NS(=O)(=O)C4(C)CC4)C[C@H]3/C=C\CCCCC[C@H](N(CCC3CCCC3)CCC3CCCC3)C(=O)N2C1 ... 6.38
2. CC(C)COC(=O)N[C@H]1CCCCC/C=C\[C@@H]2C[C@@]2(C(=O)NS(=O)(=O)C2(C)CC2)NC(=O)[C@@H]2C[C@]3(CCc4c(c(C5CC5)nc5ccc(F)cc45)O3)CN2C1=O ... 0.007
3. COc1ccc2nc(C)c3c(c2c1)CC[C@]1(C[C@H]2C(=O)N[C@]4(C(=O)NS(=O)(=O)C5(C)CC5)C[C@H]4/C=C\CCCCC[C@H](NC(=O)OC4(C)COC4)C(=O)N2C1)O3 ... 0.006
4. COc1ccc2nc(C3CC3)c3c(c2c1)CC[C@]1(C[C@H]2C(=O)N[C@]4(C(=O)NS(=O)(=O)C5(C)CC5)C[C@H]4/C=C\CCCCC[C@H](NC(=O)OCC(C)C)C(=O)N2C1)O3 ... 0.011
5. COc1ccc2nc(C(C)C)c3c(c2c1)CC[C@]1(C[C@H]2C(=O)N[C@]4(C(=O)NS(=O)(=O)C5(C)CC5)C[C@H]4/C=C\CCCCC[C@H](NC(=O)OC4(C)CCC4)C(=O)N2C1)O3 ... 0.019
6. CC1(S(=O)(=O)NC(=O)[C@@]23C[C@H]2/C=C\CCCCC[C@H](NC(=O)OC2CCCCC2)C(=O)N2C[C@@]4(CCc5c(c(C6CC6)nc6c(F)cccc56)O4)C[C@H]2C(=O)N3)CC1 ... 0.019
7. Cc1nc2ccccc2c2c1O[C@]1(CC2)C[C@H]2C(=O)N[C@]3(C(=O)NS(=O)(=O)C4(C)CC4)C[C@H]3/C=C\CCCCC[C@H](NC(=O)OC3CC(F)(F)C3(F)F)C(=O)N2C1 (stereo partly shown) [Example 320] ... 0.013
8. Cc1nc2ccccc2c2c1O[C@]1(C=C2)C[C@H]2C(=O)N[C@]3(C(=O)NS(=O)(=O)C4CC4)C[C@H]3/C=C\CCCCC[C@H](NC(=O)OC(C)(C)C)C(=O)N2C1 ... 0.013
9. CC1(S(=O)(=O)NC(=O)[C@@]23C[C@H]2/C=C\CCCCC[C@H](NC(=O)OC2CCCC2)C(=O)N2C[C@@]4(CCc5c(c(C6CC6)nc6ccc(F)cc56)O4)C[C@H]2C(=O)N3)CC1 ... 0.006
10. COCCOC(=O)N[C@H]1CCCCC/C=C\[C@@H]2C[C@@]2(C(=O)NS(=O)(=O)C2(C)CC2)NC(=O)[C@@H]2C[C@]3(CCc4c(c(C)nc5ccccc45)O3)CN2C1=O ... 0.044
11. COc1ccc2nc(C(F)(F)F)c3c(c2c1)CC[C@]1(C[C@H]2C(=O)N[C@]4(C(=O)NS(=O)(=O)C5(C)CC5)C[C@H]4/C=C\CCCCC[C@H](NC(=O)OC(C)(C)C)C(=O)N2C1)O3 ... 0.015
12. Cc1nc2cc(F)ccc2c2c1O[C@]1(CC2)C[C@H]2C(=O)N[C@]3(C(=O)NS(=O)(=O)C4(C)CC4)C[C@H]3/C=C\CCCCC[C@H](NC(=O)OCC(C)(C)C)C(=O)N2C1 ... 0.019
13. Cc1nc2ccc(OC(F)F)cc2c2c1O[C@]1(CC2)C[C@H]2C(=O)N[C@]3(C(=O)NS(=O)(=O)C4(C)CC4)C[C@H]3/C=C\CCCCC[C@H](NC(=O)OC(C)(C)C)C(=O)N2C1 ... 0.005
14. CCc1nc2ccc(OC)cc2c2c1O[C@]1(CC2)C[C@H]2C(=O)N[C@]3(C(=O)NS(=O)(=O)C4(C)CC4)C[C@H]3/C=C\CCCCC[C@H](NC(=O)OC(C)(C)C(F)(F)F)C(=O)N2C1 ... 0.017
15. Cc1nc2cc(Cl)ccc2c2c1O[C@]1(CC2)C[C@H]2C(=O)N[C@]3(C(=O)NS(=O)(=O)C4(C)CC4)C[C@H]3/C=C\CCCCC[C@H](NC(=O)OC(C)C)C(=O)N2C1 ... 0.04
16. Cc1nc2ccc(Cl)cc2c2c1O[C@]1(CC2)C[C@H]2C(=O)N[C@]3(C(=O)NS(=O)(=O)C4(C)CC4)C[C@H]3/C=C\CCCCC[C@H](NC(=O)OC(C)(C)C)C(=O)N2C1 ... 0.004
17. Cc1nc2ccccc2c2c1O[C@]1(CC2)C[C@H]2C(=O)N[C@]3(C(=O)NS(=O)(=O)C4(C)CC4)C[C@H]3/C=C\CCCCC[C@H](NC(=O)OCC(C)(C)C)C(=O)N2C1 ... 0.01
18. COc1ccc2nc(C3CC3)c3c(c2c1)CC[C@]1(C[C@H]2C(=O)N[C@]4(C(=O)NS(=O)(=O)C5(C)CC5)C[C@H]4/C=C\CCCCC[C@H](NC(=O)NC(C)(C)C)C(=O)N2C1)O3 ... 0.006
19. CCCOC(=O)N[C@H]1CCCCC/C=C\[C@@H]2C[C@@]2(C(=O)NS(=O)(=O)C2(C)CC2)NC(=O)[C@@H]2C[C@]3(CCc4c(c(C(F)F)nc5ccccc45)O3)CN2C1=O ... 0.013
